# assayDetails: LogP
# Format: physicochemical
# setupConditions: as previously described (refs 27, 31, 36); read-out: LogP
Where a SMILES comes first, the peptide text is derived from it. The star is where a group is joined. X1 = CC1(C)C(/C=C/C=C/C=C2/N(CCCCS(=O)(=O)O)c3ccc(S(=O)(=O)O)cc3C2(C)C)=[N+](CCCCCC(=O)NCCN2C(=O)CC(*)C2=O)c2ccc(S(=O)(=O)[O-])cc21
readoutLabel: LogP

CC[C@H](C)[C@H](NC(=O)[C@H](CC(=O)O)NC(=O)[C@@H]1CCCN1C(=O)[C@@H]1CCCN1C(=O)[C@H](CC(N)=O)NC(=O)[C@H](CCCCN)NC(C)=O)C(=O)N[C@H](C(=O)NCC(=O)N[C@@H](CCCCN)C(=O)N[C@H](C(=O)N[C@@H](CSC1CC(=O)N(CCNC(=O)CCCCC[N+]2=C(/C=C/C=C/C=C3/N(CCCCS(=O)(=O)O)c4ccc(S(=O)(=O)O)cc4C3(C)C)C(C)(C)c3cc(S(=O)(=O)[O-])ccc32)C1=O)C(N)=O)[C@@H](C)O)C(C)C (some centres unmarked) [Cy5-P0_101–110] (Ac-KNPPDIVGKTC(X1)-NH2)
-0.73
CC[C@H](C)[C@H](NC(=O)[C@H](CC(=O)O)NC(=O)[C@@H]1CCCN1C(=O)[C@@H]1CCCN1C(=O)[C@H](CC(N)=O)NC(=O)[C@H](CCCCN)NC(C)=O)C(=O)N[C@@H](CSC1CC(=O)N(CCNC(=O)CCCCC[N+]2=C(/C=C/C=C/C=C3/N(CCCCS(=O)(=O)O)c4ccc(S(=O)(=O)O)cc4C3(C)C)C(C)(C)c3cc(S(=O)(=O)[O-])ccc32)C1=O)C(N)=O (some centres unmarked) [Cy5-P0_101–106] (Ac-KNPPDIC(X1)-NH2)
-0.95
